# Measured Target: Sodium/glucose cotransporter 2 (Homo sapiens, UniProt P31639)
# Sequence (P31639 whole entry): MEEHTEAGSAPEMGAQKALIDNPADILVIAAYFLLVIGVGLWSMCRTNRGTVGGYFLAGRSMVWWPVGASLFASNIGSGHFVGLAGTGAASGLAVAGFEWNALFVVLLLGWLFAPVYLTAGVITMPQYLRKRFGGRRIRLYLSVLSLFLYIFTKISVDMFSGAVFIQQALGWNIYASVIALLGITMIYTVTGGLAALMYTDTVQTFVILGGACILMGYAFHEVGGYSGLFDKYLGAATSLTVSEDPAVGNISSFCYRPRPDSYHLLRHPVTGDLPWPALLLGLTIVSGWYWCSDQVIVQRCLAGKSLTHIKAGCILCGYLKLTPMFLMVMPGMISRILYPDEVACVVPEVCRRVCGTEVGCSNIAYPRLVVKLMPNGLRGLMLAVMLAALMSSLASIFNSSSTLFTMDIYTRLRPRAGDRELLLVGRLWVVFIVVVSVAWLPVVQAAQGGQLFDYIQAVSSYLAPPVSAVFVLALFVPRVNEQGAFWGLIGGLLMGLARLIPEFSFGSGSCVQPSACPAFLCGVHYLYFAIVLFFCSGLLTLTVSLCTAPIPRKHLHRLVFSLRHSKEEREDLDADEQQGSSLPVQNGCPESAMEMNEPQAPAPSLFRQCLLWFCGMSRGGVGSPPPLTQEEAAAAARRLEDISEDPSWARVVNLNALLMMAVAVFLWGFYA
# Experimental Protocol: Inhibition of human SGLT2 expressed in CHO-K1 cells by [14C]AMG uptake assay
pIC50: −log10 of the molar value.
Listing: pIC50 of selected molecules
Result Type: pIC50

CCOc1ccc(Cc2ccc(CC)cc2)cc1[C@]1(O)C[C@H](CO)[C@@H](O)[C@H](O)[C@H]1O = 8.00
CCc1ccc(Cc2ccc(OC)c([C@]3(O)C[C@H](CO)[C@@H](O)[C@H](O)[C@H]3O)c2)cc1 = 7.85
CCOc1ccc(Cc2ccc(CC)cc2)cc1[C@@H]1C[C@H](CO)[C@@H](O)[C@H](O)[C@H]1O = 7.72
CCc1ccc(Cc2cc([C@]3(O)C[C@H](CO)[C@@H](O)[C@H](O)[C@H]3O)ccc2OC)cc1 = 7.00
CCc1ccc(Cc2ccc(C)c([C@]3(O)C[C@H](CO)[C@@H](O)[C@H](O)[C@H]3O)c2)cc1 = 6.77
CCc1ccc(Cc2cccc([C@@H]3C[C@H](CO)[C@@H](O)[C@H](O)[C@H]3O)c2)cc1 = 7.31
CCc1ccc(Cc2ccc(C)c([C@@H]3C[C@H](CO)[C@@H](O)[C@H](O)[C@H]3O)c2)cc1 = 7.28
Cc1ccc([C@@H]2O[C@H](CO)[C@@H](O)[C@H](O)[C@H]2O)cc1Cc1ccc(-c2ccc(F)cc2)s1 [CANAGLIFLOZIN ANHYDROUS] = 8.17

----------
# Experimental Protocol: Tmax in db/db mouse at 10 mg/kg, po administered as single dose by LC-MS/MS system method
# Type: ADME, organism-based
# Parameters: dose 10 mg/kg, route oral
# Measurement Setup: in vivo
Listing: Tmax of selected compounds
Result Type: Tmax (min)

CCOc1ccc(Cc2ccc(CC)cc2)cc1[C@@H]1C[C@H](CO)[C@@H](O)[C@H](O)[C@H]1O = 15
COc1ccc(Cc2ccccc2O[C@@H]2C[C@H](CO)[C@@H](O)[C@H](O)[C@H]2O)cc1 = 15
CCOC(=O)OC[C@H]1O[C@@H](Oc2ccccc2Cc2ccc(OC)cc2)[C@H](O)[C@@H](O)[C@@H]1O [SERGLIFLOZIN ETABONATE] = 15
